molecular target: recombinant rat VEGF164 (rat) (UniProt P16612); assay: Biacore SPR; ratio to hVEGF165
Please go through the items and note down their relative value KdhVEGF165/KdmVEGF164 (rat block).
Hey, just send me the number, nothing else.

Requested read-out: relative value KdhVEGF165/KdmVEGF164 (rat block). Entry: 578min_max T84N_V89L_DHP (scFv) scFv: EIVMTQSPSTLSASVGDRVIITCQASEIIHSWLAWYQQKPGKAPKLLIYLASTLASGVPSRFSGSGSGAEFTLTISSLQPDDFATYYCQNVYLASTNGANFGQGTKLTVLGGGGGSGGGGSGGGGSGGGGSEVQLVESGGGSVQPGGSLRLSCTASGFSLTDYYYMTWVRQAPGKGLEWVGFIDPDDDPYYATWAKGRFTISRDNSKNTLYLQMNSLRAEDTATYYCAGGDHNSGWGLDIWGQGTTVTVSS 1.5

Query 578min_max T84N_V89L (scFv, the VH entry already carries T84N and V89L; tied by name; also called Protein No. 1008) scFv: EIVMTQSPSTLSASVGDRVIITCQASEIIHSWLAWYQQKPGKAPKLLIYLASTLASGVPSRFSGSGSGAEFTLTISSLQPDDFATYYCQNVYLASTNGANFGQGTKLTVLGGGGGSGGGGSGGGGSGGGGSEVQLVESGGGLVQPGGSLRLSCTASGFSLTDYYYMTWVRQAPGKGLEWVGFIDPDDDPYYATWAKGRFTISRDNSKNTLYLQMNSLRAEDTAVYYCAGGDHNSGWGLDIWGQGTLVTVSS next 0.8

Again, but for 578minmax (scFv, also called ESBA903; 903) scFv: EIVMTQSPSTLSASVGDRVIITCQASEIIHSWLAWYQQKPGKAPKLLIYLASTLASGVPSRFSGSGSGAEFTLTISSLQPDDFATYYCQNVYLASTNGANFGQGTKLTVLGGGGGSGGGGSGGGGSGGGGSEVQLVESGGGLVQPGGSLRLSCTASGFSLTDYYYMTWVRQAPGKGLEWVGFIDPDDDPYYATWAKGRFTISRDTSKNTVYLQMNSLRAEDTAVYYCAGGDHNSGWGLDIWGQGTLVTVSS 0.8

Next: 578minmax FW1.4_DHP (scFv, tied by name only) scFv: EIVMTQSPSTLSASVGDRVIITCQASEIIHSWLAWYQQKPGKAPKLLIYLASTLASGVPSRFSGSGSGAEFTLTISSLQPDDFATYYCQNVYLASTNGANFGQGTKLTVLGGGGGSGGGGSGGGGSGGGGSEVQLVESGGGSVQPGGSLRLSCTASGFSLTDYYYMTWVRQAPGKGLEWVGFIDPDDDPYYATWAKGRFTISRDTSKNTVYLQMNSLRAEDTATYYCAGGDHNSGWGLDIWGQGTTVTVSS 0.7
